# MEASURED ON: Human EphA2 (ephrin receptor A2) on cells (human, UniProt P29317 25-976)
# Sequence (P29317 25-976): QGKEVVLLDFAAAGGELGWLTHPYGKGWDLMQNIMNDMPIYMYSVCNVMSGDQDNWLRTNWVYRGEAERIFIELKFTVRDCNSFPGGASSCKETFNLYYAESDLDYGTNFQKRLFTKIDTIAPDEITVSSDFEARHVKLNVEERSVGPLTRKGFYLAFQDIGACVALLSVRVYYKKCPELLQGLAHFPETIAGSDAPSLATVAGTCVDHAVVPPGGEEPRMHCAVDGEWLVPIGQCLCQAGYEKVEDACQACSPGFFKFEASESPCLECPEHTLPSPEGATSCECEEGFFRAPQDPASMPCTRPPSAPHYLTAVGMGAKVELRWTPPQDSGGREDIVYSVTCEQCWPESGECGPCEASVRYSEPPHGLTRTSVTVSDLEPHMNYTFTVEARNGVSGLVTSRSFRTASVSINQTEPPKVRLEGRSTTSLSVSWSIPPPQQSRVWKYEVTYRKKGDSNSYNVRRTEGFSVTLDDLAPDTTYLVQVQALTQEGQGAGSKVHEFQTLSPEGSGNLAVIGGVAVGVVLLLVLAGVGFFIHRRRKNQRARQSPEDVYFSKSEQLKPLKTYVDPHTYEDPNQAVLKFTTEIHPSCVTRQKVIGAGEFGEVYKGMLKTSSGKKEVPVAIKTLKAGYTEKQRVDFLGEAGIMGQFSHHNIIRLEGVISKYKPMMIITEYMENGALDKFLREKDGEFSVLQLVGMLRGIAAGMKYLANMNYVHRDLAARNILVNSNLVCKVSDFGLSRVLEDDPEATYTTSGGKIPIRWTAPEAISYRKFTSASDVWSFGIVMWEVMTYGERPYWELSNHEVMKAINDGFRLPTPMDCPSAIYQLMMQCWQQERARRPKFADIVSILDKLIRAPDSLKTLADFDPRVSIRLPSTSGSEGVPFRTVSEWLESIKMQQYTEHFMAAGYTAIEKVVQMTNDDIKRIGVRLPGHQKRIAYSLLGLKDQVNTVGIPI
# TEST NAME: flow cytometry on A549 cells
pEC50: −log10 of the molar value.
Entries annotated with measured pEC50
OBSERVED PROPERTY: pEC50

| BINDER | RESULT |
| --- | --- |
| AB-009816 (antibody, mouse IgG2a, V domains shown) VH: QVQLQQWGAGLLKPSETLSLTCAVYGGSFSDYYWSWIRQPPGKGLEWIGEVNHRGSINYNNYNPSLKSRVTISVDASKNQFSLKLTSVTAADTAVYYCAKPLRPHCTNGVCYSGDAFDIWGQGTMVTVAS VL: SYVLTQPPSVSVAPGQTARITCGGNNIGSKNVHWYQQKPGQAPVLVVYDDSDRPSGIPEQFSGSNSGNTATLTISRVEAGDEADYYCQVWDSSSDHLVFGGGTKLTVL | 8.26 |
| AB-009814 (antibody, mouse IgG2a, V domains shown) VH: QVQLQQWGAGLLKPSETLSLTCAVYGGSFSDYYWSWIRQPPGKGLEWIGEVNHRGSINYNPSLKSRVTISVDPSKNQFSLKLTSVTAADTAVYYCAKPLRPHCTNGVCYSGDAFDIWGQGTMVTVAS VL: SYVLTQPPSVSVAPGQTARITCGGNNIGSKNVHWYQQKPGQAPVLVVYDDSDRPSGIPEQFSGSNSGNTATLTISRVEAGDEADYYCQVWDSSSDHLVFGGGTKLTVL | 7.94 |
| AB-009813 (antibody, mouse IgG2a, V domains shown) VH: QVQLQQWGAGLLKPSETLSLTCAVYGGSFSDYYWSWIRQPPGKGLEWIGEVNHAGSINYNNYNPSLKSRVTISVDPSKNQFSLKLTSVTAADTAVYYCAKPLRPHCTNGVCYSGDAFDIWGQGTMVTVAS VL: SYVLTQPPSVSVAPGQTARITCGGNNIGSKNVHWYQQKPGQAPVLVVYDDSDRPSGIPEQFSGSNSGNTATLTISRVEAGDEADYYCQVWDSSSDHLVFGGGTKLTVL | 8.17 |
| AB-009815 (antibody, mouse IgG2a, V domains shown) VH: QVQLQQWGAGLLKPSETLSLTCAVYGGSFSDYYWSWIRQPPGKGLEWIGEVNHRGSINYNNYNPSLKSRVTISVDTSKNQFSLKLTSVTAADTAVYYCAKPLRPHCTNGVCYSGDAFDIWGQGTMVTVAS VL: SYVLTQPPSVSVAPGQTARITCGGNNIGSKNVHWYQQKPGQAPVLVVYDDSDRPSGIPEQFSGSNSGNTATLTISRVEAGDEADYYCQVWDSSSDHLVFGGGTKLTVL | 8.26 |
